# TARGET: DDR1 kinase (Homo sapiens, UniProt Q08345)
# Sequence (Q08345 19-876 isoform Q08345-2 limits assumed): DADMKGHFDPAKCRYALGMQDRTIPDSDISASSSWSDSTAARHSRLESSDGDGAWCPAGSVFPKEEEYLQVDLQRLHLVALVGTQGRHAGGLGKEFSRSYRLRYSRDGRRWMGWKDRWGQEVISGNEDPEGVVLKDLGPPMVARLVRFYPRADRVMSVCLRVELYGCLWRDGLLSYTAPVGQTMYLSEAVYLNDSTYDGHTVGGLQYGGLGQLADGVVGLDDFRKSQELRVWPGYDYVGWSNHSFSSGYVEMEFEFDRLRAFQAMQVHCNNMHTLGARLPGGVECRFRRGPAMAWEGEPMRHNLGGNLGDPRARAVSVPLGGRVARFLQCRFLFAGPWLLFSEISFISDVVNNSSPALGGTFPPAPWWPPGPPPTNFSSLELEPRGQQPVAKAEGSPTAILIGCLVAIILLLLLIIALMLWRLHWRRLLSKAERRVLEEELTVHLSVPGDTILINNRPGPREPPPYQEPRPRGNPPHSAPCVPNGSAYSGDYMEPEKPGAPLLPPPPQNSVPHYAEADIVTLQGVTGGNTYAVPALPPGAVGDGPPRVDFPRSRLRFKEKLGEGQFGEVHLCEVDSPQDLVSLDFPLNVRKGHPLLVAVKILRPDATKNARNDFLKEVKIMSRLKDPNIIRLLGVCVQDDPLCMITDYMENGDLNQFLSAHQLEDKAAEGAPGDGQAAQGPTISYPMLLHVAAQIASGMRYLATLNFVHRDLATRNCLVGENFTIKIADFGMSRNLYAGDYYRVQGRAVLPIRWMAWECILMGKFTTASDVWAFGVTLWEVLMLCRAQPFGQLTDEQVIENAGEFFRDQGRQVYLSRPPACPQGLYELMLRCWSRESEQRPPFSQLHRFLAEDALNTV
# PROTOCOL_DETAILS: Evaluation of DDR1 kinase inhibition (LANCE Ultra TR-FRET kinase assay)
# Format: biochemical
# Set-up: purchased Carna Biosciences 08-113
# MEASUREMENT_PARAMETERS: DDR1 protein 0.5 nM, LANCE Ultra ULight-poly GAT substrate, 2 hours at room temperature, duplicate; read-out: DDR-1 IC50
Structures can show the parent of a compound that is named as a salt.
Recorded IC50 determines the group label, using low (below 5 nM), intermediate (5 nM to below 40 nM), high (40 nM or more)

Would you please look over these solved cases?
O=C(c1ccc2[nH]nnc2c1)N1CC(c2nn(CC(=O)N3CCC[C@H]3C(F)(F)F)c3cc(F)cc(F)c23)C1 [Compound E-169] : intermediate
Cc1nc(N)oc1C(=O)N1CC(c2nn(CC(=O)N3CCC[C@H]3C(F)(F)F)c3cc(F)cc(F)c23)C1 [Compound E-110] : high
CCNc1cc(C(=O)N2CC(c3nn(CC(=O)NCC(F)(F)F)c4cccc(Cl)c34)C2)ccn1 [Compound E-64, hydrochloride] : high
Cc1nc(N)sc1C(=O)N1CCC(c2nn(CC(=O)N3CCC[C@H]3C(F)(F)F)c3cccc(F)c23)CC1 [Compound E-119] : low
Nc1cc(C(=O)N2CCC(c3nn(CC(=O)N4CCO[C@H](C(F)(F)F)C4)c4cccc(F)c34)CC2)ccn1 [Compound E-90] : intermediate
Nc1cc(C(=O)N2CC(c3nn(CC(=O)N4CCCC(C(F)(F)F)C4)c4ccccc34)C2)c(F)cn1 (centres unmarked) [Compound E-259] : low
Nc1cc(C(=O)N2CC(c3nn(CC(=O)N4CCO[C@@H](C(F)(F)F)C4)c4ccc(Cl)cc34)C2)ccn1 [Compound E-205] : low
Nc1cc(C(=O)N2CC(c3nn(CC(=O)N4CCC[C@H]4C(F)(F)F)c4ccccc34)C2)c(Cl)cn1 [Compound E-210] : low
O=C(c1ccnc(NC2CC2)c1)N1CC(c2nn(CC(=O)N3CCC[C@H]3C(F)(F)F)c3cc(F)cc(F)c23)C1 [Compound E-72, hydrochloride] : intermediate
CC1(C)CCc2c(c(C3CN(C(=O)c4ccnc(N)n4)C3)nn2CC(=O)N2CCC[C@H]2C(F)(F)F)C1 [Compound E-295] : high

Problem: State the class of the molecule shown: CN1CCN(C(=O)Cn2nc(C3CN(C(=O)c4cc(N)ncc4F)C3)c3ccccc32)CC1 [Compound E-260]
Result: high

Problem: Please let me know in which category the item CN(CC(F)(F)F)C(=O)Cn1nc(C2(C)CN(C(=O)c3ccnc(N)c3)C2)c2ccccc21 [Compound E-273] belongs.
Result: high
